compounds and their reported IC50
Assay: Antioxidant activity assessed as superoxide radical scavenging activity by chemiluminescence analysis
Format: functional

Below, 4 compounds whose answers are already recorded.
compound: COc1cc([C@H](O)[C@H](CO)Oc2c(OC)cc(-c3cc(=O)c4c(O)cc(O)cc4o3)cc2OC)ccc1O [SALCOLIN B]
assay result: > 200 µM
--
compound: COc1cc(/C=C/C(=O)OC[C@H]2O[C@@](CO)(O[C@H]3O[C@H](CO)[C@@H](OC(=O)/C=C/c4ccc(O)c(OC)c4)[C@H](O)[C@H]3O)[C@@H](OC(=O)/C=C/c3ccc(O)c(OC)c3)[C@@H]2O)ccc1O
assay result: > 200 µM
--
compound: COc1cc(/C=C/C(=O)OC[C@H]2O[C@@](CO)(O[C@H]3O[C@H](CO)[C@@H](OC(=O)/C=C/c4ccc(O)cc4)[C@H](O)[C@H]3OC(C)=O)[C@@H](OC(=O)/C=C/c3ccc(O)c(OC)c3)[C@@H]2O)ccc1O
assay result: > 200 µM
--
compound: COc1cc([C@H]2Oc3c(OC)cc(/C=C/COC(=O)c4ccc(O)cc4)cc3[C@@H]2COC(=O)c2ccc(O)cc2)ccc1O [QUIQUESETINERVIUSIN A]
assay result: > 200 µM

Continue with the next compound.
Entry COc1cc(/C=C/C(=O)OC[C@H]2O[C@@](CO)(O[C@H]3O[C@H](CO)[C@@H](OC(=O)/C=C/c4ccc(O)c(OC)c4)[C@H](O)[C@H]3OC(C)=O)[C@@H](OC(=O)/C=C/c3ccc(O)c(OC)c3)[C@@H]2O)ccc1O has what IC50?
184 µM

meta.source: ChEMBL document CHEMBL1221409
